These measurements were taken from PubChem BioAssay (NCATS).

experiment: qHTS Screen of the MIPE 4.0 Collection Against Ewings Sarcoma (RDES) (AID 1259252); details: RD-ES Ewing sarcoma viability, CellTiter-Glo, 48 h; series mostly up to 45.8 µM; also: nearly all actives have a fitted effect of over 35% in size
Inconclusive results are not listed. Active and inactive are the calls of the source. Calls follow the shape of the dose curve; as a rule, active = well fitted inhibition curve with a large enough effect; inconclusive = small, poorly fitted or top-dose-only effect; inactive = no such curve, though single readings can be large or run the other way.
Classes used: True (active), False (inactive)

>  <compound>
Cc1cccc(-c2[nH]c(C(C)(C)C)nc2-c2ccc3nccnc3c2)n1

>  <answer_label>
True

$$$$
>  <compound>
COc1cc2nccc(Oc3ccc(NC(=O)NC4CC4)c(Cl)c3)c2cc1C(N)=O

>  <answer_label>
True

$$$$
>  <compound>
COc1ccc(-c2ccc3c(N4CCOCC4)nc(N4C[C@@H](C)O[C@@H](C)C4)nc3n2)cc1CO

>  <answer_label>
True

$$$$
>  <compound>
CC(C)NCC(O)COc1ccc(COCCOC(C)C)cc1 (centres undefined)

>  <answer_label>
False

$$$$
